Each recorded value in this set is attributed to PubChem BioAssay (NCI).

system: DU-145 prostate; test: NCI tumour cell line growth inhibition, 48 h
reported endpoint: TGI (µM)
Answer in µM, number only, no unit symbol.

Recall the recorded TGI for COc1ccc2c(c1)C(=O)c1c-2c(NCCCN(C)C)nc2ccccc12 with DU-145 prostate and state it.
19.5

Recall the recorded TGI for O=C(CCSC(CC(=O)c1ccc(Cl)cc1)c1ccc(Cl)cc1)Nc1ccc(Cl)cc1 (stereo not given) with DU-145 prostate and state it.
27

Recall the recorded TGI for O=C(c1ccccc1)c1ccc(-c2ccc(O)cc2)cc1 with DU-145 prostate and state it.
29.4

Recall the recorded TGI for C[C@@H]1O[C@@H](O[C@H]2C[C@@H](O)[C@]3(CO)C4C(CC[C@]3(O)C2)[C@@]2(O)CC[C@H](C3=CC(=O)OC3)[C@@]2(C)C[C@H]4O)[C@H](O)[C@H](O)[C@H]1O (stereo not given in full) with DU-145 prostate and state it.
0.02

Recall the recorded TGI for Brc1c[n+](Cc2ccc3ccccc3c2)cn1Cc1ccc2ccccc2c1 with DU-145 prostate and state it.
7.75

* * *

tested on: TK-10 renal; assay: NCI tumour cell line growth inhibition, 48 h
Would you kindly list TGI for each of these molecules?

Recall the recorded TGI for Cn1ncc2cc(-c3cnc(N)c(Cl)c3N3CCC4(CCNC4=O)CC3)ccc21 with TK-10 renal and state it.
> 100 µM

Recall the recorded TGI for CSc1nc2c(c(N(C)C)n1)C=Nn1c(nc3ccccc31)S2 with TK-10 renal and state it.
> 100 µM

Recall the recorded TGI for COc1ccc(C[C@@H]2CN(C(=O)c3ccccc3)[C@H](Cc3ccc(O)cc3)CN2C(=O)c2ccccc2)cc1Br with TK-10 renal and state it.
> 100 µM

Recall the recorded TGI for COC(=O)OC[C@H]1O[C@@H](n2cc(C)c(=O)[nH]c2=O)CC1OC(=O)OC (some centres not stated) with TK-10 renal and state it.
> 100 µM

Recall the recorded TGI for [Cu+2].[Cu+2].[O-]c1ccccc1C=Nc1ccccc1[O-].[O-]c1ccccc1C=Nc1ccccc1[O-] with TK-10 renal and state it.
32.3 µM

Recall the recorded TGI for CCN(CC)c1ccc(NC(C(=O)c2ccccc2)c2ccccc2)cc1 (configuration not stated) with TK-10 renal and state it.
7.53 µM

Recall the recorded TGI for O=S(=O)(Nc1ccc(-c2nc(-c3cccc(OCCN4CCOCC4)c3)c(-c3ccnc(Br)c3)[nH]2)cc1)c1ccccc1 with TK-10 renal and state it.
> 100 µM

* * *

system: UACC-62 melanoma; assay: NCI tumour cell line growth inhibition, 48 h
reported endpoint: TGI

Look up TGI for this molecule: C=C1C(=O)O[C@@H]2C[C@]3(C)[C@@H](C[C@H]12)[C@](C)(O)CC[C@@H]3O
> 100 µM

Look up TGI for this molecule: O=S(=O)(O)c1ccc(NN(c2c(O)ccc3ccccc23)S(=O)(=O)O)cc1
> 100 µM

Look up TGI for this molecule: CN(NC(=O)c1ccco1)C1=NCCCCN1
> 100 µM

Look up TGI for this molecule: Nc1ccccc1C#C/C=C\C#Cc1ccc(F)cc1F
32.5 µM

Look up TGI for this molecule: C[C@]12CC[C@H](O)CC1=CC[C@@H]1[C@@H]2CC[C@]2(C)C(=O)/C(=C/c3cccc(OCCCn4ccnc4)c3)C[C@@H]12
30 µM

Look up TGI for this molecule: CS(=O)(=O)NNS(=O)(=O)c1ccc(Br)cc1
> 100 µM

Look up TGI for this molecule: COc1ccc2c(c1O)-c1c(OC)c(OC)cc3c1[C@H](C2)[N+](C)(C)CC3
> 100 µM

Look up TGI for this molecule: O=S(=O)(O)c1cc(Cl)c(O)c2ncc(Cl)cc12
> 100 µM

Look up TGI for this molecule: CCOC(=O)NNC(=O)NCCNC(=O)NNC(=O)OCC
> 100 µM

Look up TGI for this molecule: O=C(NC1CCCCC1)c1c(O)[nH]c(=S)[nH]c1=O
> 100 µM

Look up TGI for this molecule: COc1ccc2c(c1)O/C(=C\c1cccc(OCC(=O)Nc3nc4ccccc4s3)c1)C2=O
> 100 µM

Look up TGI for this molecule: CC1C(c2ccc(N(C)C)cc2)c2cc3c(cc2OC1N1CCCC1)OCO3 (configuration not stated)
> 100 µM

Look up TGI for this molecule: COC(=O)OC[C@H]1O[C@@H](n2cc(C)c(=O)[nH]c2=O)CC1OC(=O)OC (some centres not stated)
> 100 µM

Look up TGI for this molecule: Cc1c(C)c(C)c(-n2c(=O)n(C)c(=O)n2C(C)(C)C)c(C)c1C
> 100 µM

Look up TGI for this molecule: CC1(C)CCc2c(cc3c(c2O)CCC(C)(C)O3)O1
> 100 µM

Look up TGI for this molecule: Nc1nc2ncn(CCO)c2c(=O)[nH]1
> 100 µM

Look up TGI for this molecule: COC(=O)/C(=C/c1ccc(OC)cc1)C(C(=O)O)=C(C)C
> 100 µM

Look up TGI for this molecule: COc1cc(OC)c(-c2cc(=O)c3c(OC)c(OC)c(OC)c(OC)c3o2)cc1OC
> 88.5 µM

Look up TGI for this molecule: CCCCCCCCCCCCNC(=O)NCC(OCC)OCC
> 10 µM

Look up TGI for this molecule: [Cu+2].[Cu+2].[O-]c1ccccc1C=Nc1ccccc1[O-].[O-]c1ccccc1C=Nc1ccccc1[O-]
14 µM

Look up TGI for this molecule: Oc1c(Cl)c2nccnc2c2ccccc12
> 100 µM

Look up TGI for this molecule: CCOc1ncn(-c2ccc(NC(=S)Nc3cccc(O)c3)cc2)n1
> 100 µM

* * *

Would you kindly list TGI for each of these compounds?
system: DU-145 prostate; experiment: NCI tumour cell line growth inhibition, 48 h

Look up TGI for this compound: COC1=CC(c2ccc[nH]2)=N/C1=C\c1[nH]c(C)c(C(=O)CCC(=O)Oc2ccc3c(c2)CCC2C3CC[C@]3(C)C(=O)CC[C@@H]23)c1C (stereo partly specified)
> 100 µM

Look up TGI for this compound: Cc1oc2ccccc2c(=O)c1Cn1nnc2ccccc21
> 100 µM

Look up TGI for this compound: COC(=O)Cc1c([C@@H]2Nc3ccccc3[C@H]2CC(=O)OC)[nH]c2ccccc12
> 100 µM

Look up TGI for this compound: CC1(C)CCC(S(=O)(=O)c2ccc3c(c2)/C(=N\O)c2cc(S(=O)(=O)N4CCC(O)(c5cccc(C(F)(F)F)c5)CC4)ccc2-3)CC1
0.115 µM

Look up TGI for this compound: Cc1c(Cl)ccc2c1NC(=O)C2(O)CC(=O)c1ccc(Cl)cc1Cl (stereo unspecified)
> 50 µM

Look up TGI for this compound: C=C(NC(=O)C(=C)NC(=O)c1csc(C2=NC3c4csc(n4)C4NC(=O)c5csc(n5)C(C(C)(O)C(C)O)NC(=O)C5CSC(=N5)/C(=C/C)NC(=O)C(C(C)O)NC(=O)c5csc(n5)C3(CC2)NC(=O)C(C)NC(=O)C(=C)NC(=O)C(=C)NC(=O)C(C(C)C)NC2C=Cc3c(C(C)O)cc(nc3C2O)C(=O)OC4C)n1)C(N)=O (stereo unspecified)
> 72.4 µM

* * *

Would you kindly list GI50 for each of these compounds?

Recall the recorded GI50 for Cc1ccc(S(=O)(=O)N(C)C)cc1[N+](=O)[O-] with NCI-H460 lung and state it.
> 100 µM

Recall the recorded GI50 for O=C(NCc1cn(Cc2cccc(Oc3ccccc3)c2)nn1)c1cccnc1Nc1ccccc1 with NCI-H460 lung and state it.
2.85 µM

Recall the recorded GI50 for O=C(c1ccccc1)c1ccc(-c2ccc(O)cc2)cc1 with NCI-H460 lung and state it.
4.2 µM

Recall the recorded GI50 for O=S(=O)(Nc1ccc(-c2nc(-c3cccc(OCCN4CCOCC4)c3)c(-c3ccnc(Br)c3)[nH]2)cc1)c1ccccc1 with NCI-H460 lung and state it.
3.45 µM

* * *

tested on: EKVX NSCLC; assay: NCI tumour cell line growth inhibition, 48 h
reported endpoint: TGI

Look up TGI for this molecule: COc1ccc(CC(=O)c2cc(OC)c(OC)cc2C)cc1OC
> 100 µM

Look up TGI for this molecule: c1ccc2[nH]c(-c3nc4ccccc4o3)nc2c1
> 100 µM

Look up TGI for this molecule: COc1ccc(CNc2cc(OC)cc(OC)c2)cc1
> 100 µM

Look up TGI for this molecule: Oc1c(Cl)c2nccnc2c2ccccc12
> 100 µM

Look up TGI for this molecule: CCOn1cc(C[C@@]2(O)C(=O)OC3[C@@H](O)CO[C@@]32O)c2ccccc21 (stereo partly specified)
> 100 µM

Look up TGI for this molecule: COc1ccc(C[C@@H]2CN(C(=O)c3ccccc3)[C@H](Cc3ccc(O)cc3)CN2C(=O)c2ccccc2)cc1Br
> 100 µM

* * *

tested on: OVCAR-5 ovarian; experiment: NCI tumour cell line growth inhibition, 48 h
Would you kindly list TGI for each of these compounds?

Look up TGI for this compound: CC1=C/C(=C(\c2ccc(N(C)C)cc2)c2ccc([N+](C)(C)C)cc2)C=CC1=[N+](C)C
69 µM

Look up TGI for this compound: Cc1c2c(n3c(nc4ccccc43)c1C#N)N(c1ccc(Cl)cc1)CC2
> 100 µM

Look up TGI for this compound: CN(C)CCC1(C2=CCCC2)CC/C(=C\c2ccc3c(c2)OCO3)C1=O (configuration not stated)
29.2 µM

Look up TGI for this compound: COc1c(C2(c3ccc(F)cc3)SCCCS2)c(=O)c1=O
> 100 µM

Look up TGI for this compound: O=S(=O)(O)c1cc(Cl)c(O)c2ncc(Cl)cc12
> 100 µM

Look up TGI for this compound: Brc1c[n+](Cc2ccc3ccccc3c2)cn1Cc1ccc2ccccc2c1
8.71 µM

Look up TGI for this compound: O=S(=O)(c1cccc(C(F)(F)F)c1)N1c2ccccc2-n2cccc2C1c1cccnc1 (configuration not stated)
> 75.1 µM

Look up TGI for this compound: CCOC(=O)C(NCc1ccccc1)(NC(=O)c1ccccc1)C(F)(F)F (configuration not stated)
> 100 µM

Look up TGI for this compound: c1ccc2[nH]c(-c3nc4ccccc4o3)nc2c1
> 100 µM

Look up TGI for this compound: C[N+]1(C)C2Cc3ccccc3C1Cc1ccccc12
> 100 µM

Look up TGI for this compound: O=C1N[C@H]2c3c(Cl)sc(Cl)c3C(=O)[C@H]2O1
51.1 µM

Look up TGI for this compound: C1=C2SSC3=CC=C(SSc4ccc(s4)SSC4=CC=C(SSC(=C1)S2)S4)S3
> 100 µM

Look up TGI for this compound: COc1ccc(C2C3=C(NC(=O)C2C#N)c2ccc4ccccc4c2OCC3)cc1 (configuration not stated)
> 100 µM

Look up TGI for this compound: COc1ccc2c(c1)Oc1nc(N)c(C#N)c(N)c1C2Sc1ccc(SC)cc1 (configuration not stated)
3.55 µM

Look up TGI for this compound: COc1ccc(-c2nc3ncccn3c2-c2ccc(S(C)=O)cc2)cc1 (configuration not stated)
> 100 µM

Look up TGI for this compound: O=C(Cc1ccccc1)Oc1ccc2c(-c3ccccc3)c(C(=O)Nc3ccc(Cl)cc3)c(=O)oc2c1
> 100 µM

Look up TGI for this compound: O=C1C=C(SCCO)C(=O)c2ccccc21
21.4 µM

Look up TGI for this compound: COc1ccc2c(O)c3[n+](cc2c1OC)CCc1cc2c(cc1-3)OCO2
> 100 µM

Look up TGI for this compound: O=C(NNc1nc2cc(F)ccc2n2c(CN3CCOCC3)ccc12)c1ccccc1
3.45 µM

Look up TGI for this compound: COc1ccc(C[C@@H]2CN(C(=O)c3ccccc3)[C@H](Cc3ccc(O)cc3)CN2C(=O)c2ccccc2)cc1Br
> 100 µM

Look up TGI for this compound: COc1ccc(-c2nc(-c3nc4ccc(F)cc4[nH]3)cc3c2[nH]c2ccccc23)cc1
> 100 µM

Look up TGI for this compound: O=C(Cn1ccnc1[N+](=O)[O-])N(CCO)CCO
> 1250 µM
